Measured pIC50 (IL-13 (Homo sapiens))
pIC50: −log10 of the molar value.
MEASUREMENT KIND: pIC50

>>> value("CN(CCCCCN(Cc1cccnc1)Cc1cn(S(=O)(=O)c2ccccc2)c2ccccc12)C1CCCCC1")
4.70
>>> value("FC(F)(F)c1cccc(-n2cc(CN(CCCCCNC3CCCCC3)Cc3cccnc3)c3ccccc32)c1")
5.82

(a) FC(F)(F)c1cccc(-n2cc(CN(Cc3ccccn3)CC3CCCN(C4CCCCC4)C3)c3ccccc32)c1 (stereo not shown)
(b) CN(CCCCCN(Cc1ccnc(F)c1)Cc1cn(S(=O)(=O)c2ccccc2)c2ccccc12)C1CCCCC1
Task: Param metric = pIC50; output whichever of a , b has the minimum value. Identify your pick by its label.
Result: b
(b: 4.82, a: 5.85)
